B1: INTS3 (parent)
chain: KKREFRFHPIKETVVEEPVDITPY

Variants of: B1
Assay: protein stability index of a GFP-peptide fusion (GPS, HEK-293T) (PSI 1-6); higher = more stable;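 also: lentivirally expressed fusions sorted by FACS into six bins by GFP to DsRed ratio, PSI derived from sequencing read proportions per bin multiplied by bin number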
Conditions: c terminus: a fixed tail appended
metric-name: protein stability index
Answer as a number with no unit attached.

[Q] Name the recorded protein stability index of the variant listed here: KKREFRFHPIKETVVEEPVDIDPY
[A] 2.12

[Q] Name the recorded protein stability index of the variant listed here: KKREFRFHPIDETVVEEPVDITPY
[A] 2.72

[Q] Name the recorded protein stability index of the variant listed here: KKREFWFHPIKETVVEEPVDITPY
[A] 2.55

[Q] Name the recorded protein stability index of the variant listed here: KKREFRFHPIKETVVEENVDITPY
[A] 2.26

[Q] Name the recorded protein stability index of the variant listed here: KKREFRAHPIKETVVEEPVDITPY
[A] 4.76

[Q] Name the recorded protein stability index of the variant listed here: KKREFRFHPIKETVVEEPVQITPY
[A] 2.02

[Q] Name the recorded protein stability index of the variant listed here: KKREFRFHPIKETVVEEPVDITMY
[A] 2.4

[Q] Name the recorded protein stability index of the variant listed here: KKREFRFHPIKETRVEEPVDITPY
[A] 1.35

[Q] Name the recorded protein stability index of the variant listed here: KKREFRFHPIKETVVEEPFDITPY
[A] 1.77

[Q] Name the recorded protein stability index of the variant listed here: KKREFRFHPIKETVHEEPVDITPY
[A] 1.82

[Q] Name the recorded protein stability index of the variant listed here: KKREFRFYPIKETVVEEPVDITPY
[A] 3.43

[Q] Name the recorded protein stability index of the variant listed here: KKREFRGHPIKETVVEEPVDITPY
[A] 4.71

[Q] Name the recorded protein stability index of the variant listed here: KKREFRFHPIKECVVEEPVDITPY
[A] 2.38

[Q] Name the recorded protein stability index of the variant listed here: KKREFRFHPIKETVVEEPVDITRY
[A] 1.55

[Q] Name the recorded protein stability index of the variant listed here: KKREFRFHDIKETVVEEPVDITPY
[A] 3.8

[Q] Name the recorded protein stability index of the variant listed here: KKREFRFHPIKETVVEEKVDITPY
[A] 2.62

[Q] Name the recorded protein stability index of the variant listed here: KKREFRFHPIWETVVEEPVDITPY
[A] 1.61

[Q] Name the recorded protein stability index of the variant listed here: KKREFRFHPIKETVVEEQVDITPY
[A] 2.06

[Q] Name the recorded protein stability index of the variant listed here: KKREFRFHPIKETVVEEPVVITPY
[A] 1.65

[Q] Name the recorded protein stability index of the variant listed here: KKREFRFHNIKETVVEEPVDITPY
[A] 3.02

[Q] Name the recorded protein stability index of the variant listed here: KKREFRFHPIKETVQEEPVDITPY
[A] 2

[Q] Name the recorded protein stability index of the variant listed here: KKREFRFHPIKETVVEEPLDITPY
[A] 1.7

[Q] Name the recorded protein stability index of the variant listed here: KKREFRFHPIKETVVEEPVDLTPY
[A] 2.01

[Q] Name the recorded protein stability index of the variant listed here: KKREFRFHPIKETVVEEPGDITPY
[A] 1.98

[Q] Name the recorded protein stability index of the variant listed here: KKRYFRFHPIKETVVEEPVDITPY
[A] 1.81

[Q] Name the recorded protein stability index of the variant listed here: KKREFRFHPTKETVVEEPVDITPY
[A] 2.27

[Q] Name the recorded protein stability index of the variant listed here: KKREFRFHPIKETVVEVPVDITPY
[A] 2.02

[Q] Name the recorded protein stability index of the variant listed here: KKREFRFHPIKKTVVEEPVDITPY
[A] 2.19

[Q] Name the recorded protein stability index of the variant listed here: KKREFRFEPIKETVVEEPVDITPY
[A] 3.55

[Q] Name the recorded protein stability index of the variant listed here: KKREFRFHPIKETVVEEPVDIYPY
[A] 2.26

[Q] Name the recorded protein stability index of the variant listed here: KKREFRFKPIKETVVEEPVDITPY
[A] 4.01

[Q] Name the recorded protein stability index of the variant listed here: KKREFRFHPIKETMVEEPVDITPY
[A] 2.19

[Q] Name the recorded protein stability index of the variant listed here: KKREFRFHPIIETVVEEPVDITPY
[A] 1.85

[Q] Name the recorded protein stability index of the variant listed here: KKREFRFHPIKETVVEFPVDITPY
[A] 1.89

[Q] Name the recorded protein stability index of the variant listed here: PKREFRFHPIKETVVEEPVDITPY
[A] 1.66

[Q] Name the recorded protein stability index of the variant listed here: KKREFRFHPIKETVDEEPVDITPY
[A] 2.35

[Q] Name the recorded protein stability index of the variant listed here: KKREFRFHPIKETVVEEPVIITPY
[A] 1.7

[Q] Name the recorded protein stability index of the variant listed here: KKRQFRFHPIKETVVEEPVDITPY
[A] 2.36

[Q] Name the recorded protein stability index of the variant listed here: KKREFRFHPLKETVVEEPVDITPY
[A] 1.75

[Q] Name the recorded protein stability index of the variant listed here: KKREFRFHPIKTTVVEEPVDITPY
[A] 1.39

[Q] Name the recorded protein stability index of the variant listed here: KKREFRFHPIKETVVEEPVKITPY
[A] 1.05

[Q] Name the recorded protein stability index of the variant listed here: KKREYRFHPIKETVVEEPVDITPY
[A] 3.92

[Q] Name the recorded protein stability index of the variant listed here: KCREFRFHPIKETVVEEPVDITPY
[A] 1.9

[Q] Name the recorded protein stability index of the variant listed here: KKREFREHPIKETVVEEPVDITPY
[A] 4.62

[Q] Name the recorded protein stability index of the variant listed here: KKREFRFHPIKETVVEEPVEITPY
[A] 2.35

[Q] Name the recorded protein stability index of the variant listed here: KKREFRFHPIKETVVEEPVDITPF
[A] 2.18

[Q] Name the recorded protein stability index of the variant listed here: KKREFRFHPMKETVVEEPVDITPY
[A] 1.87

[Q] Name the recorded protein stability index of the variant listed here: KKREFRFLPIKETVVEEPVDITPY
[A] 3.97

[Q] Name the recorded protein stability index of the variant listed here: KKREFRFHPRKETVVEEPVDITPY
[A] 1.41

[Q] Name the recorded protein stability index of the variant listed here: KKREFRFHPIKETVVEEPVDITPM
[A] 1.76

[Q] Name the recorded protein stability index of the variant listed here: KRREFRFHPIKETVVEEPVDITPY
[A] 2.29

[Q] Name the recorded protein stability index of the variant listed here: KKREFRFHPIKMTVVEEPVDITPY
[A] 2.43

[Q] Name the recorded protein stability index of the variant listed here: KGREFRFHPIKETVVEEPVDITPY
[A] 2.11

Origin of values: the supplement of paper PMC10567573
